All figures here come from the supplement of paper PMC9170038.

system: MS2 coat protein; assay: apparent KD of MS2 coat protein; higher = weaker reporter binding; details: Eterna round: R107; input ligand: theophylline 2 mM
apparent KD of MS2 coat protein values by entry
PARAMETER MEASURED: apparent KD of MS2 coat protein

                              sequence_code               parameter_measured    value
0  UUCUUUAAGUCGGCCGCCACUGAAACAUGAGGAUCACCCAUGUAAAUUUGGGAGUAGGUAUAUUACAGGACCGGGACUAUAGUAA [JR_ExcTryptoB_Sub021]  apparent KD of MS2 coat protein  27.3 nM
1  ACGUAAUGCAGAAGGAGCGUCUUUUUAAAACAUGAGGAUCACCCAUGUAAUAUUUAUGGGAGACAGGUAGGUCGCUGAAGUACGA [JR_SSArginiB_Sub006]  apparent KD of MS2 coat protein  22.3 nM
2  ACAUGAGGAUCACCCAUGUACAUGAGGGAAGGAGCGGUACAUGUGCCAGGUAGGUCGCCCAACAGCAUCAGCCAUGUACAUCAGC [ppsmullin]  apparent KD of MS2 coat protein  83.5 nM
3  AGUUAAAUAUGUUAAUAACUAUUUACUGAAGGAGCGUGUUUUUACACAGGUAGGUCGCAGUGACAUGAGGAUCACCCAUGUAGUA [JR_SSArginiA_Sub012]  apparent KD of MS2 coat protein  43.5 nM

====

system: MS2 coat protein; experiment: apparent KD of MS2 coat protein; designed switch direction (-1 OFF switch, 1 ON switch): -1; higher = weaker reporter binding; settings: input ligand: none
Listing of entries alongside the reported apparent KD of MS2 coat protein.
PARAMETER MEASURED: apparent KD of MS2 coat protein (nM)

SEQUENCE CODE	VALUE
CUUUUGUGAGGAUAUUAGUAGUAAAUAAAUAAAAUUACUACUGAGAAGGCACAUGAGGAUCACCCAUGUUCCUC [salish99_ex4_r3_041] (Eterna round: R96, puzzle: Exclusion 4)	35.4
CUGCUCCGUGUAGGAUAUCCCGGCAACCAACCGGGAGAAGGACAUGAGGAUCACCCAUGUAUGUUAUUAUCACGUGAAGCGUCC [Design 28] (Eterna round: R96, puzzle: Exclusion NG 1)	19.9
GUCAGCUCGUGAGGAUAUGUAUAUACAUGAGGAUCACCCAUGUUAGAUCUGCUUCGGCUGUAUAUACAGAAGGCACGAGCUGAC [ENG2/16-A1] (Eterna round: R96, puzzle: Exclusion NG 2)	308
AAAUUCAGAGGAUAUGCGCAUAGAUAAGACUUUUUUUUUUAACAUGAGGAUCACCCAUGUAGAAGGCUGUAAAU [Ex2 #52] (Eterna round: R97, puzzle: Exclusion 2)	25.5
UCCUGGCGAGGAUAUACAAAGAUUUUUUCGUUUUGUUUCGAACAUGAGGAUCACCCAUGUAGAAGGUGCUGCUG [JR_Ex2_Sub015] (Eterna round: R97, puzzle: Exclusion 2)	46.7
CAAUGUGCUGAGGAUAUCUGCAGGUUGGGCCUGGGAGAAGGCGGCACAUGAGGAUCACCCAUGUGACCGAAAUA [EX6 A.17] (Eterna round: R97, puzzle: Exclusion 6)	39.3
UUAAUUAAUUAACGCAGCAAGAUCACAUGAGGAUCACCCAUGUAGGAUAUCAGCUCGAUUAGAGCUGAGAAGGACAUAGCUGCG [ExNG3/1-A1] (Eterna round: R96, puzzle: Exclusion NG 3)	17.5
UUUUAGUCAGGAUAUACAUGAGGAUCACCCAUGUAAAAUUUUAAUUUAAUUUUAAGGUGUAGAAGGGACAAUCC [Ex3 #12] (Eterna round: R97, puzzle: Exclusion 3)	38.9
CUGGAGUCAGGAUAUGACGCAGUCCGCCCAAAUAGCGGAAAUCAGAAGGGACUUGAGGAUCACCCAAGUAAAAG [Qubilexe] (Eterna round: R97, puzzle: Exclusion 4)	21.8
CCACUGUCAGGAUAUCGUGCAUAACGUUUACAUUAUAUGUGCGAGAAGGGACAUGAGGAUCACCCAUGUAAACG [Omei Ex4 A28PK1] (Eterna round: R97, puzzle: Exclusion 4)	566
GAUUAUGCAAGCUUUUGGGACAUGAGGAUCACCCAUGUUCGUCUUAUUGAUCUAGGUACGCUGACGUACCUAGAUCU [JL-sv1-2.32 Brourd mod] (Eterna round: R96, puzzle: Sensor v3, turn-off variant 1)	17.2
CAGUACUGAGGAUAUACAUGAGGAUCACCCAUGUGUUCCAGCUAGGAGACUAGCAUAUGUAGAAGGCAGUACUG [jl-ex3-4.03 salish99 mod] (Eterna round: R97, puzzle: Exclusion 3)	326
UGCUGACGAGGAUAUACAUGAGGAUCACCCAUGUUGGUCAAGCGACGAUAGUCGCAAUGUAGAAGGUGUCAGCA [E3/8-B1] (Eterna round: R97, puzzle: Exclusion 3)	114
